Assignment: determine reported solubility thermodynamic for the given compounds.
# procedure summary: Equilibrium solubility of compound at pH 1 incubated for 24 to 48 hrs by HPLC analysis
# Assay type: physicochemical
# condition summary: buffer, time 24-48 hrs
Use µg/mL as the unit, but write only the number.

Quick check: solubility thermodynamic of COC(=O)N[C@H](C(=O)N1CCC[C@H]1c1nc2cc(F)c([C@H]3CC[C@H](c4cc5nc([C@@H]6CCCN6C(=O)[C@@H](NC(=O)OC)[C@@H](C)OC)n(COC(=O)[C@@H](NC(=O)OCOP(=O)(O)O)C(C)C)c5cc4F)N3c3cc(F)c(N4CCC(c5ccc(F)cc5)CC4)c(F)c3)cc2[nH]1)[C@@H](C)OC ?
114

Quick check: solubility thermodynamic of COC(=O)N[C@H](C(=O)N1CCC[C@H]1c1nc2cc(F)c([C@H]3CC[C@H](c4cc5nc([C@@H]6CCCN6C(=O)[C@@H](NC(=O)OC)[C@@H](C)OC)n(COP(=O)(O)O)c5cc4F)N3c3cc(F)c(N4CCC(c5ccc(F)cc5)CC4)c(F)c3)cc2[nH]1)[C@@H](C)OC ?
37.3

Quick check: solubility thermodynamic of COC(=O)N[C@H](C(=O)N1CCC[C@H]1c1nc2cc(F)c([C@H]3CC[C@H](c4cc5c(cc4F)nc([C@@H]4CCCN4C(=O)[C@@H](NC(=O)OC)[C@@H](C)OC)n5COC(=O)[C@@H](NC(=O)OCOP(=O)(O)O)C(C)C)N3c3cc(F)c(N4CCC(c5ccc(F)cc5)CC4)c(F)c3)cc2[nH]1)[C@@H](C)OC ?
271

* * *

Assignment: determine reported Cmax for the given compounds.
# procedure summary: Cmax in CD1 mouse assessed as pibrentasvir1 level at 6 mg/kg, po measured up to 24 hrs
# Assay type: ADME, organism-based
# Design: route oral, dose 6 mg/kg, time <=24
# condition summary: in vivo
Use ng/mL as the unit, but write only the number.

Quick check: Cmax of COC(=O)N[C@H](C(=O)N1CCC[C@H]1c1nc2cc(F)c([C@H]3CC[C@H](c4cc5nc([C@@H]6CCCN6C(=O)[C@@H](NC(=O)OC)[C@@H](C)OC)n(C(=O)OCCCOP(=O)(O)O)c5cc4F)N3c3cc(F)c(N4CCC(c5ccc(F)cc5)CC4)c(F)c3)cc2[nH]1)[C@@H](C)OC ?
26

Quick check: Cmax of COC(=O)N[C@H](C(=O)N1CCC[C@H]1c1nc2cc(F)c([C@H]3CC[C@H](c4cc5nc([C@@H]6CCCN6C(=O)[C@@H](NC(=O)OC)[C@@H](C)OC)n(COC(=O)CC(C)(C)c6c(C)cc(C)cc6OP(=O)(O)O)c5cc4F)N3c3cc(F)c(N4CCC(c5ccc(F)cc5)CC4)c(F)c3)cc2[nH]1)[C@@H](C)OC ?
1210

* * *

# procedure summary: Stability of compound at pH 7.4 assessed as prodrug remaining level at 125 ug/ml incubated for 24 hrs by HPLC analysis
# Format: physicochemical
# condition summary: buffer, pH 7.4, 24 h, at 125 µg/mL
property name: Stabilty
Give your result as the value with the unit written after it.

Quick check: Stabilty of COC(=O)N[C@H](C(=O)N1CCC[C@H]1c1nc2cc(F)c([C@H]3CC[C@H](c4cc5c(cc4F)nc([C@@H]4CCCN4C(=O)[C@@H](NC(=O)OC)[C@@H](C)OC)n5COP(=O)(O)O)N3c3cc(F)c(N4CCC(c5ccc(F)cc5)CC4)c(F)c3)cc2[nH]1)[C@@H](C)OC ?
100%

Quick check: Stabilty of COC(=O)N[C@H](C(=O)N1CCC[C@H]1c1nc2cc(F)c([C@H]3CC[C@H](c4cc5nc([C@@H]6CCCN6C(=O)[C@@H](NC(=O)OC)[C@@H](C)OC)n(COC(=O)N(C)c6ncccc6COP(=O)(O)O)c5cc4F)N3c3cc(F)c(N4CCC(c5ccc(F)cc5)CC4)c(F)c3)cc2[nH]1)[C@@H](C)OC ?
92%

Quick check: Stabilty of COC(=O)N[C@H](C(=O)N1CCC[C@H]1c1nc2cc(F)c([C@H]3CC[C@H](c4cc5nc([C@@H]6CCCN6C(=O)[C@@H](NC(=O)OC)[C@@H](C)OC)n(COC(=O)c6cccc(OP(=O)(O)O)c6)c5cc4F)N3c3cc(F)c(N4CCC(c5ccc(F)cc5)CC4)c(F)c3)cc2[nH]1)[C@@H](C)OC ?
100%

* * *

Assignment: determine reported solubility thermodynamic for the given compounds.
# procedure summary: Equilibrium solubility of compound at pH 1 incubated for 24 to 48 hrs by HPLC analysis
# Type: physicochemical
# condition summary: buffer, time 24-48 hrs
Use µg/mL as the unit, but write only the number.

Quick check: solubility thermodynamic of COC(=O)N[C@H](C(=O)N1CCC[C@H]1c1nc2cc([C@H]3CC[C@H](c4cc5nc([C@@H]6CCCN6C(=O)[C@@H](NC(=O)OC)[C@@H](C)OC)n(COP(=O)(O)O)c5cc4F)N3c3cc(F)c(N4CCC(c5ccc(F)cc5)CC4)c(F)c3)c(F)cc2n1COP(=O)(O)O)[C@@H](C)OC ?
135

Quick check: solubility thermodynamic of COC(=O)N[C@H](C(=O)N1CCC[C@H]1c1nc2cc(F)c([C@H]3CC[C@H](c4cc5nc([C@@H]6CCCN6C(=O)[C@@H](NC(=O)OC)[C@@H](C)OC)n(COC(=O)CC(C)(C)c6c(C)cc(C)cc6OP(=O)(O)O)c5cc4F)N3c3cc(F)c(N4CCC(c5ccc(F)cc5)CC4)c(F)c3)cc2[nH]1)[C@@H](C)OC ?
572

Quick check: solubility thermodynamic of COC(=O)N[C@H](C(=O)N1CCC[C@H]1c1nc2cc(F)c([C@H]3CC[C@H](c4cc5nc([C@@H]6CCCN6C(=O)[C@@H](NC(=O)OC)[C@@H](C)OC)n(COC(=O)Cc6ccccc6OP(=O)(O)O)c5cc4F)N3c3cc(F)c(N4CCC(c5ccc(F)cc5)CC4)c(F)c3)cc2[nH]1)[C@@H](C)OC ?
2

Quick check: solubility thermodynamic of COC(=O)N[C@H](C(=O)N1CCC[C@H]1c1nc2cc(F)c([C@H]3CC[C@H](c4cc5c(cc4F)nc([C@@H]4CCCN4C(=O)[C@@H](NC(=O)OC)[C@@H](C)OC)n5COC(=O)c4ccccc4COP(=O)(O)O)N3c3cc(F)c(N4CCC(c5ccc(F)cc5)CC4)c(F)c3)cc2[nH]1)[C@@H](C)OC ?
543

* * *

Assignment: determine reported solubility thermodynamic for the given compounds.
# procedure summary: Equilibrium solubility of compound at pH 1 incubated for 24 to 48 hrs by HPLC analysis
# Assay type: physicochemical
# condition summary: buffer, time 24-48 hrs
Use µg/mL as the unit, but write only the number.

Quick check: solubility thermodynamic of COC(=O)N[C@H](C(=O)N1CCC[C@H]1c1nc2cc([C@H]3CC[C@H](c4cc5nc([C@@H]6CCCN6C(=O)[C@@H](NC(=O)OC)[C@@H](C)OC)[nH]c5cc4F)N3c3cc(F)c(N4CCC(c5ccc(F)cc5)CC4)c(F)c3)c(F)cc2[nH]1)[C@@H](C)OC [PIBRENTASVIR] ?
422

Quick check: solubility thermodynamic of COC(=O)N[C@H](C(=O)N1CCC[C@H]1c1nc2cc(F)c([C@H]3CC[C@H](c4cc5c(cc4F)nc([C@@H]4CCCN4C(=O)[C@@H](NC(=O)OC)[C@@H](C)OC)n5COP(=O)(O)O)N3c3cc(F)c(N4CCC(c5ccc(F)cc5)CC4)c(F)c3)cc2n1COP(=O)(O)O)[C@@H](C)OC ?
567

Quick check: solubility thermodynamic of COC(=O)N[C@H](C(=O)N1CCC[C@H]1c1nc2cc(F)c([C@H]3CC[C@H](c4cc5nc([C@@H]6CCCN6C(=O)[C@@H](NC(=O)OC)[C@@H](C)OC)n(COC(=O)CCCOP(=O)(O)O)c5cc4F)N3c3cc(F)c(N4CCC(c5ccc(F)cc5)CC4)c(F)c3)cc2[nH]1)[C@@H](C)OC ?
146

Quick check: solubility thermodynamic of COC(=O)N[C@H](C(=O)N1CCC[C@H]1c1nc2cc(F)c([C@H]3CC[C@H](c4cc5nc([C@@H]6CCCN6C(=O)[C@@H](NC(=O)OC)[C@@H](C)OC)n(COC(=O)[C@@H](NC(=O)/C=C/C(=O)O)C(C)C)c5cc4F)N3c3cc(F)c(N4CCC(c5ccc(F)cc5)CC4)c(F)c3)cc2[nH]1)[C@@H](C)OC ?
203

Quick check: solubility thermodynamic of COC(=O)N[C@H](C(=O)N1CCC[C@H]1c1nc2cc(F)c([C@H]3CC[C@H](c4cc5nc([C@@H]6CCCN6C(=O)[C@@H](NC(=O)OC)[C@@H](C)OC)n(COC(=O)Cc6ccc(OP(=O)(O)O)cc6)c5cc4F)N3c3cc(F)c(N4CCC(c5ccc(F)cc5)CC4)c(F)c3)cc2[nH]1)[C@@H](C)OC ?
45
